# Study target: Protein phosphatase 3 catalytic subunit alpha (Homo sapiens)
# Protocol notes: Inhibitory constant of compound against calcineurin was determined
pKi: −log10 of the molar value.
Property measured: pKi

{"columns": ["Compound", "Property measured", "Reported measurement"],
 "data": [
  ["CCCCCNC(=O)C(Cc1ccc(N(C(=O)C(=O)O)c2ccccc2C(=O)O)c2ccccc12)NC(C)=O (stereo unspecified)", "pKi", "< 3.52"]
]}

----------
# Protocol notes: Half life of compound was determined after oral administration in rat
# Type: ADME, organism-based
# Conditions used: in vivo
Below: a set of entries, each annotated with reported half-life.
Property measured: half-life (h)

{"columns": ["Compound", "Reported measurement"],
 "data": [
  ["O=C(O)C(=O)N(c1ccccc1C(=O)O)c1cccc2ccccc12", 7.3],
  ["CCCCCNC(=O)C(Cc1ccc(N(C(=O)C(=O)O)c2ccccc2C(=O)O)c(CC)c1)NC(C)=O (stereo not drawn)", 1.2],
  ["CCCCCNC(=O)C(Cc1ccc(N(C(=O)C(=O)O)c2ccccc2C(=O)O)c(CCO)c1)NC(C)=O (stereo not drawn)", 9]
]}

----------
# Study target: Tyrosine-protein phosphatase non-receptor type 1 (Homo sapiens)
# Sequence (P18031 whole entry): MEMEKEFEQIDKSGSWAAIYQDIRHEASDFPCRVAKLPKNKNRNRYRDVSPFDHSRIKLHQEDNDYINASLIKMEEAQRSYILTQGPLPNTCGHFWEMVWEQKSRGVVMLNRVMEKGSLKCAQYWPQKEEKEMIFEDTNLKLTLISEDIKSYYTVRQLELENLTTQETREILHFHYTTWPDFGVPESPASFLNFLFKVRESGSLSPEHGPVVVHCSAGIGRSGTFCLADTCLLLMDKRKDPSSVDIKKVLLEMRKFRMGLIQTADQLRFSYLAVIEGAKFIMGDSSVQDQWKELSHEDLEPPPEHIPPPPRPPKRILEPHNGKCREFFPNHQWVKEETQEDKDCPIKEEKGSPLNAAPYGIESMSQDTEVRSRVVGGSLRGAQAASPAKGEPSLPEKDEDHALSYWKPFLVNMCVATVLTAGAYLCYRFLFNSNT
Below: a set of entries, each annotated with reported Ki.

{"columns": ["Compound", "Unit label", "Limit operator", "Ki"],
 "data": [
  ["NC(=O)/C=C/c1ccccc1N(C(=O)C(=O)O)c1ccccc1C(=O)O", "µM", "=", 11],
  ["O=C(O)C(=O)N(c1ccccc1CCO)c1ccccc1C(=O)O", "µM", "=", 17],
  ["Cc1cccc(N(C(=O)C(=O)O)c2ccccc2C(=O)O)c1C", "µM", "=", 93],
  ["O=C(O)C(=O)N(c1ccccc1C(=O)O)c1ccccc1N1CCCCC1", "µM", "=", 14],
  ["CCCCCNC(=O)C(N)Cc1ccc(N(C(=O)C(=O)O)c2ccccc2C(=O)O)cc1 (configuration not stated)", "µM", ">", 100],
  ["CCCCCNC(=O)C(Cc1ccc(N(C(=O)C(=O)O)c2ccccc2C(=O)O)c(CCO)c1)NC(C)=O (configuration not stated)", "µM", "=", 1.5],
  ["CCCCCNC(=O)C(Cc1ccc(N(C(=O)C(=O)O)c2ccccc2C(=O)O)c(C(C)C)c1)NC(C)=O (configuration not stated)", "µM", "=", 1.2]
]}

----------
# Protocol notes: Inhibitory constant of compound against leukocyte antigen related tyrosine phosphatase (Receptor linked protein tyrosine phosphatase LAR) was determined
pKi: −log10 of the molar value.

{"columns": ["Compound", "pKi"],
 "data": [
  ["CCCCCNC(=O)C(Cc1ccc(N(C(=O)C(=O)O)c2ccccc2C(=O)O)c2ccccc12)NC(C)=O (stereo unspecified)", 5.17]
]}
